protocol_notes: Peptide conjugate biodistribution measured by tissue PK (ICP-MS, % ID/g in kidney tissue at 2 h)
Format: in vivo
assay_setup: 2 h time point, mouse
Numbered stars: 1 amine (or outer) side, 2 acyl side, 3 side chain; on linkers, the order of the positions; unused ones are H or OH. Square brackets hold non-standard residues; d marks the D form. Peptide text beside a SMILES is read from it. * marks the point of attachment. DOTA(Lu)NH(CH2)6NHCOCH2 = O=C(CN1CCN2CCN3CCN(CC1)CC(=O)[O][Lu]([O]C(=O)C2)[O]C(=O)C3)NCCCCCCNC(=O)C*; DOTA(Lu) = O=C1CN2CCN3CCN(CC(=O)*)CCN(CC2)CC(=O)[O][Lu]([O]1)[O]C(=O)C3; Ala(piperidin-4-yl) = O=C([C@H](CC1CCN([*:3])CC1)N[*:1])[*:2]; dTrp(βS-Me) = C[C@@H](c1c[nH]c2ccccc12)[C@@H](N)C(=O)O; X2 = O=C([C@H](CCC1CNC1)N[*:1])[*:2]; Lys(Me2) = CN(C)CCCC[C@H](N)C(=O)O; NMehCys = CN[C@@H](CCS)C(=O)O; NMeK = CN[C@@H](CCCCN)C(=O)O; X1 = C1NCC1*
Let's look at some compounds and their measured tissue uptake at 2 h.
Param answer (str): number followed by unit.

Note down tissue uptake at 2 h recorded for C[C@@H](O)[C@@H]1NC(=O)[C@H](CC2CCNCC2)NC(=O)[C@@H]([C@@H](C)c2c[nH]c3ccccc23)NC(=O)[C@H](Cc2ccc(O)cc2)NC(=O)[C@H](CCSCC(=O)NCCCCCCNC(=O)CN2CCN3CCN4CCN(CC2)CC(=O)[O][Lu]([O]C(=O)C3)[O]C(=O)C4)N(C)C(=O)[C@H](Cc2ccccc2)NC1=O [RB-0005760] (cyclo(F[NMehCys](DOTA(Lu)NH(CH2)6NHCOCH2)Y[dTrp(βS-Me)][Ala(piperidin-4-yl)]T))
2.7 %ID/g

Note down tissue uptake at 2 h recorded for C[C@@H](O)[C@@H]1NC(=O)[C@H](COC2CNC2)NC(=O)[C@@H](Cc2c[nH]c3ccccc23)NC(=O)[C@H](Cc2ccc(O)cc2)NC(=O)[C@H](CCSCC(=O)NCCCCCCNC(=O)CN2CCN3CCN4CCN(CC2)CC(=O)[O][Lu]([O]C(=O)C3)[O]C(=O)C4)N(C)C(=O)[C@H](Cc2ccccc2)NC1=O [RB-0006013] (cyclo(F[NMehCys](DOTA(Lu)NH(CH2)6NHCOCH2)Y[dW]S(X1)T))
3 %ID/g

Note down tissue uptake at 2 h recorded for C[C@@H](O)[C@@H]1NC(=O)[C@H](CC2CCNCC2)NC(=O)[C@@H]([C@@H](C)c2c[nH]c3ccccc23)NC(=O)[C@H](Cc2ccc(O)cc2)NC(=O)[C@H](CCCCNC(=O)CN2CCN3CCN4CCN(CC2)CC(=O)[O][Lu]([O]C(=O)C3)[O]C(=O)C4)N(C)C(=O)[C@H](Cc2ccccc2)NC1=O [RB-0006176] (cyclo(F[NMeK](DOTA(Lu))Y[dTrp(βS-Me)][Ala(piperidin-4-yl)]T))
1.6 %ID/g

Note down tissue uptake at 2 h recorded for C[C@@H](O)[C@@H]1NC(=O)[C@H](CCC2CNC2)NC(=O)[C@@H](Cc2c[nH]c3ccccc23)NC(=O)[C@H](Cc2ccc(O)cc2)NC(=O)[C@H](CCSCC(=O)NCCCCCCNC(=O)CN2CCN3CCN4CCN(CC2)CC(=O)[O][Lu]([O]C(=O)C3)[O]C(=O)C4)N(C)C(=O)[C@H](Cc2ccccc2)NC1=O [RB-0005897] (cyclo(F[NMehCys](DOTA(Lu)NH(CH2)6NHCOCH2)Y[dW][X2]T))
2.5 %ID/g

Note down tissue uptake at 2 h recorded for C[C@@H](O)[C@@H]1NC(=O)[C@H](CCCCN(C)C)NC(=O)[C@@H](Cc2c[nH]c3ccccc23)NC(=O)[C@H](Cc2ccc(O)cc2)NC(=O)[C@H](CCSCC(=O)NCCCCCCNC(=O)CN2CCN3CCN4CCN(CC2)CC(=O)[O][Lu]([O]C(=O)C3)[O]C(=O)C4)N(C)C(=O)[C@H](Cc2ccccc2)NC1=O [RB-0005801] (cyclo(F[NMehCys](DOTA(Lu)NH(CH2)6NHCOCH2)Y[dW][Lys(Me2)]T))
2 %ID/g

----------
study_system: SSTR2 (Homo sapiens)
Sequence (P30874 whole entry): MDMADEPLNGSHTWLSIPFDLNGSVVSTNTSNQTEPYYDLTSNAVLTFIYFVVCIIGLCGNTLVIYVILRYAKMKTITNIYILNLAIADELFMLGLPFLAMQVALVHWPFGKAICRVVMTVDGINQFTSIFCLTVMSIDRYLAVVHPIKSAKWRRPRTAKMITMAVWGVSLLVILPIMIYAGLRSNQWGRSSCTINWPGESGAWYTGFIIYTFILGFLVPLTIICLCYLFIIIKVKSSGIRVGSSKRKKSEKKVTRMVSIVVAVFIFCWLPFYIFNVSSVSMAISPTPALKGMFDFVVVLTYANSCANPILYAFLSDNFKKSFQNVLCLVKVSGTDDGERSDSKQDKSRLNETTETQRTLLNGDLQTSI
protocol_notes: SSTR binding affinity by radioligand binding competition assay ([125I]-Tyr11-Somatostatin, membrane extracts)
assay_setup: radioligand competition, [125I]-Tyr11-Somatostatin 0.1 nM, membrane extracts; Ki from IC50 by Cheng Prusoff; read-out: SSTR2 Ki
Numbered stars: 1 amine (or outer) side, 2 acyl side, 3 side chain; on linkers, the order of the positions; unused ones are H or OH. Square brackets hold non-standard residues; d marks the D form. Side chains are listed from the residue outwards. Peptide text beside a SMILES is read from it. * marks the point of attachment. DOTA(Lu)NH(CH2)6NHCOCH2 = O=C(CN1CCN2CCN3CCN(CC1)CC(=O)[O][Lu]([O]C(=O)C2)[O]C(=O)C3)NCCCCCCNC(=O)C*; DOTA(Lu) = O=C1CN2CCN3CCN(CC(=O)*)CCN(CC2)CC(=O)[O][Lu]([O]1)[O]C(=O)C3; Ala(piperidin-4-yl) = O=C([C@H](CC1CCN([*:3])CC1)N[*:1])[*:2]; dTrp(βS-Me) = C[C@@H](c1c[nH]c2ccccc12)[C@@H](N)C(=O)O; dTrp(4-Me) = Cc1cccc2[nH]cc(C[C@@H](N)C(=O)O)c12; mTyr = N[C@@H](Cc1cccc(O)c1)C(=O)O; NMehCys = CN[C@@H](CCS)C(=O)O; NMeK = CN[C@@H](CCCCN)C(=O)O
reported_metric: Ki

// fetch Ki; item: Cc1cccc2[nH]cc(C[C@H]3NC(=O)[C@H](Cc4ccc(O)cc4)NC(=O)[C@H](CCSCC(=O)NCCCCCCNC(=O)CN4CCN5CCN6CCN(CC4)CC(=O)[O][Lu]([O]C(=O)C5)[O]C(=O)C6)N(C)C(=O)[C@H](Cc4ccccc4)NC(=O)[C@H]([C@@H](C)O)NC(=O)[C@H](CC4CCNCC4)NC3=O)c12 [RB-0006073] (cyclo(F[NMehCys](DOTA(Lu)NH(CH2)6NHCOCH2)Y[dTrp(4-Me)][Ala(piperidin-4-yl)]T)) ; system: SSTR2 (Homo sapiens)
3.33 to 10 nM

// fetch Ki; item: C[C@@H](O)[C@@H]1NC(=O)[C@H](CC2CCNCC2)NC(=O)[C@@H]([C@@H](C)c2c[nH]c3ccccc23)NC(=O)[C@H](Cc2ccc(O)cc2)NC(=O)[C@H](CCCCNC(=O)CNC(=O)CN2CCN3CCN4CCN(CC2)CC(=O)[O][Lu]([O]C(=O)C3)[O]C(=O)C4)N(C)C(=O)[C@H](Cc2ccccc2)NC1=O [RB-0006397] (cyclo(F[NMeK]([Gly-DOTA(Lu)])Y[dTrp(βS-Me)][Ala(piperidin-4-yl)]T)) ; system: SSTR2 (Homo sapiens)
1 to 3.33 nM

// fetch Ki; item: C[C@@H](O)[C@@H]1NC(=O)[C@H](CC2CCNCC2)NC(=O)[C@@H]([C@@H](C)c2c[nH]c3ccccc23)NC(=O)[C@H](Cc2ccc(O)cc2)NC(=O)[C@H](CCCCNC(=O)CN2CCN3CCN4CCN(CC2)CC(=O)[O][Lu]([O]C(=O)C3)[O]C(=O)C4)N(C)C(=O)[C@H](Cc2cccc(O)c2)NC1=O [RB-0005985] (cyclo([NMeK](DOTA(Lu))Y[dTrp(βS-Me)][Ala(piperidin-4-yl)]T[mTyr])) ; system: SSTR2 (Homo sapiens)
< 1 nM

----------
Let's look at some molecules and their measured Ki.
study_system: SSTR2 (Homo sapiens)
protocol_notes: SSTR binding affinity by radioligand binding competition assay ([125I]-Tyr11-Somatostatin, membrane extracts)
assay_setup: radioligand competition, [125I]-Tyr11-Somatostatin 0.1 nM, membrane extracts; Ki from IC50 by Cheng Prusoff; read-out: SSTR2 Ki
Numbered stars: 1 amine (or outer) side, 2 acyl side, 3 side chain; on linkers, the order of the positions; unused ones are H or OH. Square brackets hold non-standard residues; d marks the D form. Side chains are listed from the residue outwards. Peptide text beside a SMILES is read from it. * marks the point of attachment. DOTA(Lu)NH(CH2)6NHCOCH2 = O=C(CN1CCN2CCN3CCN(CC1)CC(=O)[O][Lu]([O]C(=O)C2)[O]C(=O)C3)NCCCCCCNC(=O)C*; DOTA(Lu) = O=C1CN2CCN3CCN(CC(=O)*)CCN(CC2)CC(=O)[O][Lu]([O]1)[O]C(=O)C3; Ala(piperidin-4-yl) = O=C([C@H](CC1CCN([*:3])CC1)N[*:1])[*:2]; dTrp(βS-Me) = C[C@@H](c1c[nH]c2ccccc12)[C@@H](N)C(=O)O; Phe(4-CH2NH2) = NCc1ccc(C[C@H](N)C(=O)O)cc1; NMehCys = CN[C@@H](CCS)C(=O)O; NMeK = CN[C@@H](CCCCN)C(=O)O; Ava = NCCCCC(=O)O

Completed entries (count: 2):
molecule: C[C@@H](O)[C@@H]1NC(=O)[C@H](Cc2ccc(CN)cc2)NC(=O)[C@@H]([C@@H](C)c2c[nH]c3ccccc23)NC(=O)[C@H](Cc2ccc(O)cc2)NC(=O)[C@H](CCSCC(=O)NCCCCCCNC(=O)CN2CCN3CCN4CCN(CC2)CC(=O)[O][Lu]([O]C(=O)C3)[O]C(=O)C4)N(C)C(=O)[C@H](Cc2ccccc2)NC1=O [RB-0006009] (cyclo(F[NMehCys](DOTA(Lu)NH(CH2)6NHCOCH2)Y[dTrp(βS-Me)][Phe(4-CH2NH2)]T))
study_system: SSTR2 (Homo sapiens)
reported_metric: Ki
readout_value: 1 to 3.33 nM
//
molecule: C[C@@H](O)[C@@H]1NC(=O)[C@H](CC2CCNCC2)NC(=O)[C@@H]([C@@H](C)c2c[nH]c3ccccc23)NC(=O)[C@H](Cc2ccc(O)cc2)NC(=O)[C@H](CCCCNC(=O)CCCCNC(=O)CN2CCN3CCN4CCN(CC2)CC(=O)[O][Lu]([O]C(=O)C3)[O]C(=O)C4)N(C)C(=O)[C@H](Cc2ccccc2)NC1=O [RB-0006406] (cyclo(F[NMeK]([Ava-DOTA(Lu)])Y[dTrp(βS-Me)][Ala(piperidin-4-yl)]T))
study_system: SSTR2 (Homo sapiens)
reported_metric: Ki
readout_value: 1 to 3.33 nM

Consider the record given below.
// fetch Ki; item: C[C@@H](O)[C@@H]1NC(=O)[C@H](CC2CCNCC2)NC(=O)[C@@H]([C@@H](C)c2c[nH]c3ccccc23)NC(=O)[C@H](Cc2ccc(O)cc2)NC(=O)[C@H](CCSCC(=O)NCCCCCCNC(=O)CN2CCN3CCN4CCN(CC2)CC(=O)[O][Lu]([O]C(=O)C3)[O]C(=O)C4)N(C)C(=O)[C@H](Cc2ccccc2)NC1=O [RB-0005760] (cyclo(F[NMehCys](DOTA(Lu)NH(CH2)6NHCOCH2)Y[dTrp(βS-Me)][Ala(piperidin-4-yl)]T)) ; system: SSTR2 (Homo sapiens)
< 1 nM
